# assaySystem: SARS-CoV-2 full length spike protein, D614G mutant, expressed on CHO cells (SARS-CoV-2), P0DTC2
# runParameters: remark: other sources report otherwise
observedProperty: median fluorescence intensity, fold over isotype control (fold over isotype)

binder	reportedValue
antibody 472 (antibody, V domains shown) VH: EVQLVESGGGLIQPGGSLRLSCAASGFTVSSNYMSWVRQAPGKGLEWVSVIYSGGTTHYADSVKGRFTISRDNSKNTLYLQMNSLRAEDTAVYYCANYGMDVWGQGTTVTVSS VL: SYELTQPSSVSVSPGQTARITCSGDVLAKKYARWFQQKPGQAPVLVIYKDSERPSGIPERFSGSSSGTTVTLTISGAQVEDEADYYCYSAADKVFGGGTKLTVL	1.22
antibody 499 (antibody, V domains shown) VH: EVQLVESGGGLVKPGGSLRLSCAASGFTFSSYSMNWVRQAPGKGLEWVSSISSSSSYIYYADSVKGRFTISRDNAKNSLYLQMNSLRAEDTAVYYCARAPAGIVVGPDYWGQGTLVTVSS VL: NFMLTQPHSVSESPGKTVTISCTGSSGSIASNYVQWYQQRPGSAPTTVIFEDNQRPSGVPDRFSGSIDSSSNSASLTISGLKTEDEADYYCQSYHSSNPHVVFGGGTKLTVL	4.3

### Prompt Returns the measured median fluorescence intensity, fold over isotype control (fold over isotype) for the input binder. Input: antibody 490 (antibody, V domains shown) VH: QVQLQESGPGLVKPSGTLSLTCAVSGGSISSSNWWSWVRQPPGKGLEWIGELYHSGSTNYNPSLKSRVTISVDKSKNQFSLKLSSVTAADTAVYYCARVGPYYYDSSGYYNYFDYWGPGTLVTVSS VL: EIVLTQSPATLSLSPGERATLSCRASQSVSSYLAWYQQKPGQAPRLLIYDASNRATGIPARFSGSGSGTDFTLTISSLEPEDFAVYYCQQRSNWPPGITFGQGTRLEIK
### Response 1.03

Source of measurements: patent US20210292393A1
